Values from PubChem BioAssay (NCI)

- Tested on: UACC-257 melanoma
- METHOD_DESCRIPTION: NCI-60 one-dose screen, 48 h (100 = growth as untreated, 0 = no growth, -100 = all killed)
- TEST_PARAMETERS: 10 µM unless noted
About 83,000 compounds went through this panel and 20% of them were active in at least one assay; those are over-represented in the sample as a whole.
List of growth values.
// units = %; emit number, no label

Below, each entry is followed by its recorded growth result.
{"COMPOUND": "O=C1Nc2ccccc2/C1=C/c1cccn1CCCCCn1c2ccccc2c(=O)c2ccccc21", "RESULT_UNITS": "%", "growth": 106}
{"COMPOUND": "COc1ccc(-c2ccc(-c3ccc(C(=N)N)cn3)s2)cc1Cl", "RESULT_UNITS": "%", "growth": -60.8}
{"COMPOUND": "Cc1cc2nc(C(Cl)Cl)nc(-c3ccc(Cl)cc3)n2n1", "RESULT_UNITS": "%", "growth": 30.9}
{"COMPOUND": "CC(C)(C)CC(N)=O", "RESULT_UNITS": "%", "growth": 95}
{"COMPOUND": "CCN(CC)CCOc1ccccc1C", "RESULT_UNITS": "%", "growth": 106}
{"COMPOUND": "CCN(CC)CCCN1C(=O)c2c(c(C)c3c(oc4cc(OC)ccc43)c2C)C1=O", "RESULT_UNITS": "%", "growth": 114}
{"COMPOUND": "COCCn1cc(-c2nc(-c3cn(CCOC)c4ncccc34)cs2)c2ccccc21", "RESULT_UNITS": "%", "growth": 88}
{"COMPOUND": "COc1ccc(/C=C/C(=O)c2cc3c(N)c(C(=O)Nc4ccccc4)sc3nc2C)cc1", "RESULT_UNITS": "%", "growth": 69.5}
{"COMPOUND": "CCCCCO/N=C\\c1c2c(O)c3c(O)c(C)c4c(c3c1O)C(=O)C(C)(O/C=C\\C(OC)C(C)C(OC(C)=O)C(C)C(O)C(C)C(O)C(C)/C=C\\C=C(\\C)C(=O)N2)O4 (stereo unspecified)", "RESULT_UNITS": "%", "growth": 8.59}
{"COMPOUND": "N#C/C(=N\\Nc1ccc(Cl)cc1)C(=O)Nc1cc(-c2ccccc2)nn1-c1ccccc1", "RESULT_UNITS": "%", "growth": 13.2}

Which value of growth has been reported for `CCCCCCCCCCCCCCCCCCOc1cccc(CC(=O)OCC[N+](CC)(CC)CC)c1` in the records?
114

###

- Test system: A498 renal
- METHOD_DESCRIPTION: NCI-60 one-dose screen, 48 h (100 = growth as untreated, 0 = no growth, -100 = all killed)
- TEST_PARAMETERS: 10 µM unless noted
This is part of a sample that, as a whole, favours compounds with a hit. Of some 83,000 tested, about 20% had one in any assay.
List of growth values.
// units = %; emit number, no label

{"COMPOUND": "C=C1C(=O)O[C@H]2[C@H]1CC/C(COC(=O)NCCCCNC(=O)OC/C1=C/CC[C@@]3(C)O[C@H]3[C@H]3OC(=O)C(=C)[C@@H]3CC1)=C\\CC[C@@]1(C)O[C@@H]21", "growth / %": 95.1}
{"COMPOUND": "O=C(Nc1ccc2ccccc2c1)c1cc2ccccc2cc1O", "growth / %": 90.4}
{"COMPOUND": "CN1CCN(Cc2ccc(NC(=O)c3nc4ccc5[nH]ncc5c4c4c3CCCC4)cc2C(F)(F)F)CC1", "growth / %": 92.9}
{"COMPOUND": "CCCn1nc(C(=O)N2CCCCC2)c2c1CCC(N1CCC(c3ccncc3)CC1)C2 (stereo not given)", "growth / %": 109}
{"COMPOUND": "COc1ccc(C/C(C)=C(/c2ccc(OCCN3CCCC3)cc2)c2ccc(OC(=O)NCc3ccccc3)cc2)cc1", "growth / %": 107}
{"COMPOUND": "OCc1cc(CN2CCCCC2)c(O)c2ncccc12", "growth / %": 91.8}

Which value of growth has been reported for Nc1ncnc2c1C(c1ccc([N+](=O)[O-])cc1)c1sc3c(F)cccc3c1O2 (stereo not given) in the records?
97.8

Which value of growth has been reported for `COc1ccc(Nc2nn3c(SCC(=O)c4ccc(C)cc4)nnc3s2)cc1` in the records?
93.7

Which value of growth has been reported for `Nc1ccc(-c2nc3ccc4[nH]ncc4c3c3c2CCCC3)cc1F` in the records?
-0.345

Which value of growth has been reported for `CC/C(=C(/c1ccc(Cl)cc1)c1ccc(OCCN2CCOCC2)cc1)c1ccccc1` in the records?
99.7

Which value of growth has been reported for CC[C@]1(O)CC2CN(CCc3c([nH]c4ccccc34)C(C(=O)OC)(c3cc4c(cc3OC)N(C=O)[C@H]3[C@@](O)(C(=O)OC)[C@H](OC(C)=O)[C@]5(CC)[C@@H]6C[C@@H]6CN6CC[C@]43[C@@H]65)C2)C1 (stereo not given in full) in the records?
-20

Which value of growth has been reported for CCOC(=O)C1=C(C)NC(=O)NC1c1c(Cl)n(-c2ccccc2)c2ccccc12 (stereo not given) in the records?
78.2

###

List of growth values.
- System: M14 melanoma
- METHOD_DESCRIPTION: NCI-60 one-dose screen, 48 h (100 = growth as untreated, 0 = no growth, -100 = all killed)
- TEST_PARAMETERS: 10 µM unless noted
The panel holds about 83,000 compounds, 20% with a hit somewhere; the sample as a whole holds those more often.
// units = %; emit number, no label

{"MOLECULE": "O=C1OCC2=C1C(c1cccc(C(F)(F)F)c1)c1cc3c(cc1N2CCO)CCC3 (centres undefined)", "RESULT_UNITS": "%", "growth": 0.275}
{"MOLECULE": "COc1cc2c(cc1OCCCOC1=C=C=C(c3ccc4c(c3)c3cc(-c5ccc(OCCCOc6cc7c(cc6OC)C(=O)N6CCC[C@H]6C=N7)cc5)ccc3n4S(=O)(=O)c3ccc(C)cc3)C=C1)N=C[C@@H]1CCCN1C2=O", "RESULT_UNITS": "%", "growth": 22.2}

Which value of growth has been reported for `O=C1C=C(Nc2ccccc2)c2ncccc2C1=O` in the records?
-86.3

Which value of growth has been reported for CC1=C2[C@@H](CC1)[C@]1(C)O[C@@](C(C)C)(C[C@H]1OC(=O)CO)[C@H]2OC(=O)C1CC1c1ccccc1 (some centres undefined) in the records?
88.3

###

List of growth values.
- Tested on: OVCAR-4 ovarian
- METHOD_DESCRIPTION: NCI-60 one-dose screen, 48 h (100 = growth as untreated, 0 = no growth, -100 = all killed)
- TEST_PARAMETERS: 10 µM unless noted
About 83,000 compounds went through this panel and 20% of them were active in at least one assay; those are over-represented in the sample as a whole.
// units = %; emit number, no label

Below, each entry is followed by its recorded growth result.
{"MOLECULE": "Cc1ccc(C(=O)Nc2ccc(CN3CCN(C)CC3)c(C(F)(F)F)c2)cc1C#Cc1cnc(N)cc1C#N", "RESULT_UNITS": "%", "growth": 5.13}
{"MOLECULE": "O=C1/C(=C/c2ccc(F)c(F)c2)CN(C(=O)C(Cl)Cl)C/C1=C\\c1ccc(F)c(F)c1", "RESULT_UNITS": "%", "growth": -67.1}
{"MOLECULE": "CC(=O)c1nn(-c2ccccc2)/c(=N/N=Cc2cn(-c3ccccc3)nc2-c2cc3ccccc3oc2=O)s1", "RESULT_UNITS": "%", "growth": 104}
{"MOLECULE": "O=C1/C(=C/c2ccccc2)CN(C(=O)C(Cl)Cl)C/C1=C\\c1ccccc1", "RESULT_UNITS": "%", "growth": 29.7}
{"MOLECULE": "CCCCC(NC(=O)CN1C(=O)/C(=C/C(C)=C/c2ccccc2)SC1=S)C(=O)O (stereo unspecified)", "RESULT_UNITS": "%", "growth": 101}

Which value of growth has been reported for `Cc1ccc(-c2nc(SCC(=O)c3ccc(C#N)cc3)[nH]c(=O)c2C#N)cc1` in the records?
94.5

Which value of growth has been reported for `CSc1nnc(-c2cc3c([nH]c4ccccc43)c(-c3cccc(O)c3)n2)n1-c1ccc(C)cc1` in the records?
54.1

Which value of growth has been reported for `COc1cc(/C=C2\CCC/C(=C\c3cc(CN4CCCC4)c(O)c(OC)c3)C2=O)cc(CN2CCCC2)c1O` in the records?
47.1

Which value of growth has been reported for `CCN(CC)/C([O-])=c1\cccc\c1=C1\N=C(c2ccccc2)N=C1[n+]1ccc(-c2ccccc2)cc1` in the records?
99.5

Which value of growth has been reported for CCOC(=O)CC1CSC(c2cccc(Cl)c2)=N1 (stereo unspecified) in the records?
111

Which value of growth has been reported for `NC(N)=NC(N)=NCCCc1ccco1` in the records?
104

Which value of growth has been reported for `Nc1ccc(-c2nc3ccc4[nH]ncc4c3c3c2CCCC3)cc1F` in the records?
50.2

Which value of growth has been reported for `c1ccc(Cc2cccc[n+]2C(c2ccccc2)c2ccccc2)cc1` in the records?
28.2

Which value of growth has been reported for `COc1ccc(/C(C)=C(\c2ccc(OCCN3CCCCCC3)cc2)c2ccc(OC(=O)C3CCCCC3)cc2)cc1` in the records?
-28.4

Which value of growth has been reported for `COc1ccc(/C=C2\COc3ccc(O)c(O)c3C2=O)c(OC)c1OC` in the records?
27.8

Which value of growth has been reported for CCCN1C(=O)/C(=c2\sc3n(c2=O)NC2C(N=3)N(CC)C(=O)N2CC)c2ccccc21 (stereo unspecified) in the records?
63

Which value of growth has been reported for `CC/C=C\C/C=C\C[C@H](O)C/C=C1/C(=O)C=C[C@@H]1C/C=C\CCCC(=O)OC` in the records?
28.2

Which value of growth has been reported for `COc1cc(Nc2nc3ccccc3cc2C(=O)Nc2ccc(F)c(F)c2)cc(OC)c1OC` in the records?
23
